Sourced from PubChem BioAssay (NCI)

TGI values by entry
Tested on: SK-MEL-28 melanoma
Test: NCI tumour cell line growth inhibition, 48 h
Enter your answer as a number in µM; do not include the unit.

MOLECULE	TGI / µM
COC1/C=C\OC2(C)Oc3c(C)c(O)c4c(O)c(c(/C=N\OCCCc5ccccc5)c(O)c4c3C2=O)NC(=O)/C(C)=C\C=C/C(C)C(O)C(C)C(O)C(C)C(OC(C)=O)C1C (stereo not given)	4.65
CCc1cccc(CC)c1Nc1nc2c(s1)C(=O)c1ccccc1C2=O	35.9

Summary for this molecule, C=CC(=O)NCCOc1cccc(Nc2cc(NCCCNC(=O)C3CCC3)c(Br)cn2)c1 : TGI is 8.78

Summary for this molecule, CN(C)Cc1cc(N=Nc2ccccc2Cl)ccc1O : TGI is 32.3
